target.entity: HCV NS5B RdRp (Hepatitis C virus genotype 1b)
Construct: The protein was expressed with an 18 amino acid C-terminal truncation to enhance the solubility; made in house; host or cells: E. coli BL21(DE3)
experiment.description: HCV NS5B RdRp enzyme assay
Assay type: biochemical
run.conditions: HCV NS5B genotype 1b; standard or modified RdRp assay not given; numeric values
endpoint: pIC50
Would you please state pIC50, meaning minus log10 of the concentration in mol/L, as a bare number?

Reference set, count: 3
INSERT INTO measurements (compound, endpoint, obs_value) VALUES
  ('COc1ccc2c(c1)C1CC1(C(=O)N1CCCCC1c1nccs1)Cn1c-2c(C2CCCCC2)c2ccc(C(=O)NS(=O)(=O)N(C)C)cc21 (stereo not drawn)', 'pIC50', 7.15),
  ('COc1ccc2c(c1)C=C(C(=O)N1CCCCC1c1nc(C(C)C)no1)Cn1c-2c(C2CCCCC2)c2ccc(C(=O)NS(=O)(=O)N(C)C)cc21 (stereo not drawn)', 'pIC50', 6.82),
  ('COc1ccc2c(c1)C=C(C(=O)N1CCCCC1c1nccs1)Cn1c-2c(C2CCCCC2)c2ccc(C(=O)NS(=O)(=O)N(C)C)cc21 (stereo not drawn)', 'pIC50', 7.00);

Look up pIC50: `COc1ccc2c(c1)[C@@H]1C[C@]1(C(=O)N1CCC(c3nnc(C)o3)CC1)Cn1c-2c(C2CCCCC2)c2ccc(C(=O)NS(=O)(=O)N(C)C)cc21`
7.52

Queued: COc1ccc2c(c1)C1CC1(C(=O)N1CCC(c3nc(C)no3)CC1)Cn1c-2c(C2CCCCC2)c2ccc(C(=O)NS(=O)(=O)C(C)C)cc21 (stereo not drawn)
7.52

Queued: COc1ccc2c(c1)C1CC1(C(=O)N1CCC(c3nnc(C)o3)CC1)Cn1c-2c(C2CCCCC2)c2ccc(C(=O)NS(=O)(=O)N(C)C)cc21 (stereo not drawn)
7.70

---

target.entity: HCV NS5B RdRp (Hepatitis C virus genotype 1b, UniProt Q9WMX2)
Construct: The protein was expressed with an 18 amino acid C-terminal truncation to enhance the solubility; made in house; host or cells: E. coli BL21(DE3)
Sequence (Q9WMX2 2420-2992): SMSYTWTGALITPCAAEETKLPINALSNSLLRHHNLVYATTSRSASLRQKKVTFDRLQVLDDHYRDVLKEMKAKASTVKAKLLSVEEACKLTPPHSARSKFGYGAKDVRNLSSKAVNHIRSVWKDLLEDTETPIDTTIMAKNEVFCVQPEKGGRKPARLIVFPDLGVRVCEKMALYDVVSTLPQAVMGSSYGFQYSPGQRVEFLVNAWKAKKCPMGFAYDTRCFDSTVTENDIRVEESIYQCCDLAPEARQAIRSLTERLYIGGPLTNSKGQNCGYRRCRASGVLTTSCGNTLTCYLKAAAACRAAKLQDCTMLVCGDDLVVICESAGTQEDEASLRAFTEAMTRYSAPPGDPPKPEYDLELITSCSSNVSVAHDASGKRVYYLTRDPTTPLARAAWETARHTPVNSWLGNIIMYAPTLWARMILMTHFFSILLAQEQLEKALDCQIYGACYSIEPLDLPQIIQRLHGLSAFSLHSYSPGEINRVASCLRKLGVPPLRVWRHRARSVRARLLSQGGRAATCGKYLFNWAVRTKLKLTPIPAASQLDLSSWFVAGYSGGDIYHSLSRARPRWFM
experiment.description: HCV NS5B RdRp enzyme assay
Assay type: biochemical
run.conditions: HCV NS5B genotype 1b; standard or modified RdRp assay not given; numeric values
endpoint: pIC50
Would you please state pIC50, meaning minus log10 of the concentration in mol/L, as a bare number?

Reference set, count: 3
INSERT INTO measurements (compound, obs_value) VALUES
  ('COc1ccc2c(c1)C1CC1(C(=O)N1CCC(c3nnc(C)o3)CC1)Cn1c-2c(C2CCCCC2)c2ccc(C(=O)NS(=O)(=O)C(C)C)cc21 (stereo not shown)', 7.15),
  ('COc1ccc2c(c1)C1CC1(C(=O)N1CCC(c3nc(C)no3)CC1)Cn1c-2c(C2CCCCC2)c2ccc(C(=O)NS(=O)(=O)N(C)C)cc21 (stereo not shown)', 7.52),
  ('COc1ccc2c(c1)C=C(C(=O)N1CCC(c3nc(C)no3)CC1)Cn1c-2c(C2CCCCC2)c2ccc(C(=O)NS(=O)(=O)N(C)C)cc21', 7.05);

Look up pIC50: COc1ccc2c(c1)C1CC1(C(=O)N1CCC(c3nnc(N)s3)CC1)Cn1c-2c(C2CCCCC2)c2ccc(C(=O)NS(=O)(=O)N(C)C)cc21 (stereo not shown)
7.22
